Tested on: HeLa-APL
assay-comment: SRB colorimetric assay of cell growth and viability, HeLa-APL
Format: cell-based, human
measurement-setup: 48 hours exposure, SRB; read-out: LC50 HELA-APL
Where a SMILES comes first, the peptide text is derived from it. Bridges are numbered along the chain shown (N, C = ends). [ ]: non-standard residue; d: D form. The star is where a group is joined. d(aIle) = CC[C@H](C)[C@@H](N)C(=O)O; d(aThr) = C[C@@H](O)[C@@H](N)C(=O)O; Hexanoyl(5-Me) = CC(C)CCCC(=O)*; Orn = NCCC[C@H](N)C(=O)O; Dhb = C/C=C(\N)C(=O)O
Could you please report measured CC50 for the items listed next?
Answers are plain numbers, in µM.

Recorded results for 6 compounds are shown here.
compound	assay-value
C/C=C1\NC(=O)[C@H](Cc2ccccc2)NC(=O)[C@@H](C(C)C)NC(=O)[C@@H]([C@@H](C)CC)NC(=O)[C@H](NC(=O)[C@H](NC(=O)[C@H](CCCC[N+](C)(C)C)NC(=O)[C@H]2CCCN2C(=O)[C@H](NC(=O)[C@@H](NC(=O)[C@@H](NC(=O)[C@H](NC(=O)CC[C@@H](C)CC)C(C)C)[C@@H](C)O)C(C)C)C(C)C)[C@@H](C)CC)[C@@H](C)OC(=O)[C@H](C(C)C)NC1=O [Compound 93, [N^ε(Me)3-Lys^8, (4S)-MeHex^14]-KF]	3.15
C/C=C1\NC(=O)[C@H](Cc2ccc(Cl)c(Cl)c2)NC(=O)[C@@H](C(C)C)NC(=O)[C@@H]([C@@H](C)CC)NC(=O)[C@H](NC(=O)[C@H](NC(=O)[C@H](CCCN)NC(=O)[C@H]2CCCN2C(=O)[C@H](NC(=O)[C@@H](NC(=O)[C@@H](NC(=O)[C@H](NC(=O)CC[C@@H](C)CC)C(C)C)[C@@H](C)O)C(C)C)C(C)C)[C@@H](C)CC)[C@@H](C)OC(=O)[C@H](C(C)C)NC1=O [Compound 70, [Phe(3,4-Cl2)^3, (4S)-MeHex^14]-KF]	2.24
C/C=C1\NC(=O)[C@H](Cc2ccc(F)cc2)NC(=O)[C@@H](C(C)C)NC(=O)[C@@H]([C@@H](C)CC)NC(=O)[C@H](NC(=O)[C@H](NC(=O)[C@H](CCCN)NC(=O)[C@H]2CCCN2C(=O)[C@H](NC(=O)[C@@H](NC(=O)[C@@H](NC(=O)[C@H](NC(=O)CC[C@@H](C)CC)C(C)C)[C@@H](C)O)C(C)C)C(C)C)[C@@H](C)CC)[C@@H](C)OC(=O)[C@H](C(C)C)NC1=O [Compound 74, [Phe(4-F)^3, (4S)-MeHex^14]-KF]	3.15
C/C=C1\NC(=O)[C@H](Cc2ccc(I)cc2)NC(=O)[C@@H](C(C)C)NC(=O)[C@@H]([C@@H](C)CC)NC(=O)[C@H](NC(=O)[C@H](NC(=O)[C@H](CCCN)NC(=O)[C@H]2CCCN2C(=O)[C@H](NC(=O)[C@@H](NC(=O)[C@@H](NC(=O)[C@H](NC(=O)CC[C@@H](C)CC)C(C)C)[C@@H](C)O)C(C)C)C(C)C)[C@@H](C)CC)[C@@H](C)OC(=O)[C@H](C(C)C)NC1=O [Compound 72, [Phe(4-I)^3, (4S)-MeHex^14]-KF]	2.28
C/C=C1\NC(=O)[C@H](Cc2ccc([N+](=O)[O-])cc2)NC(=O)[C@@H](C(C)C)NC(=O)[C@@H]([C@@H](C)CC)NC(=O)[C@H](NC(=O)[C@H](NC(=O)[C@H](CCCN)NC(=O)[C@H]2CCCN2C(=O)[C@H](NC(=O)[C@@H](NC(=O)[C@@H](NC(=O)[C@H](NC(=O)CC[C@@H](C)CC)C(C)C)[C@@H](C)O)C(C)C)C(C)C)[C@@H](C)CC)[C@@H](C)OC(=O)[C@H](C(C)C)NC1=O [Compound 73, [Phe(4-NO2)^3, (4S)-MeHex^14]-KF]	2.95
C/C=C1\NC(=O)[C@H](Cc2ccccc2)N(C)C(=O)[C@@H](C(C)C)NC(=O)[C@@H]([C@@H](C)CC)NC(=O)[C@H](NC(=O)[C@H](NC(=O)[C@H](CCCN)NC(=O)[C@H]2CCCN2C(=O)[C@H](NC(=O)[C@@H](NC(=O)[C@@H](NC(=O)[C@H](NC(=O)CC[C@@H](C)CC)C(C)C)[C@@H](C)O)C(C)C)C(C)C)[C@@H](C)CC)[C@@H](C)OC(=O)[C@H](C(C)C)NC1=O [Compound 80, [NMePhe^3, (4S)-MeHex^14]-KF]	3.19

Pending compound:
Task item: Can you look up the measured CC50 of C/C=C1\NC(=O)[C@H](Cc2c[nH]c3ccccc23)NC(=O)[C@@H](C(C)C)NC(=O)[C@@H]([C@@H](C)CC)NC(=O)[C@H](NC(=O)[C@H](NC(=O)[C@H](CCCN)NC(=O)[C@H]2CCCN2C(=O)[C@H](NC(=O)[C@@H](NC(=O)[C@@H](NC(=O)[C@H](NC(=O)CCCC(C)C)C(C)C)[C@@H](C)O)C(C)C)C(C)C)[C@@H](C)CC)[C@@H](C)OC(=O)[C@H](C(C)C)NC1=O [Compound 68, [Trp^3]-KF] ({Hexanoyl(5-Me)}-[dV]TV[dV][dP][Orn][d(aIle)][d(aThr)][d(aIle)][dV]W[Dhb]V; ester 8-C) for me?
Reply: 3.82
